Documented pIC50 across a set of compounds
# tested.target: Recombinant human TPH1 (MBP tagged) (Homo sapiens)
# Construct: cloning full length human TPH1 cDNA in to a bacterial pMAL-c5E expression vector; made in house; host or cells: E. coli BL21 (DE3)
# Sequence (P17752 whole entry): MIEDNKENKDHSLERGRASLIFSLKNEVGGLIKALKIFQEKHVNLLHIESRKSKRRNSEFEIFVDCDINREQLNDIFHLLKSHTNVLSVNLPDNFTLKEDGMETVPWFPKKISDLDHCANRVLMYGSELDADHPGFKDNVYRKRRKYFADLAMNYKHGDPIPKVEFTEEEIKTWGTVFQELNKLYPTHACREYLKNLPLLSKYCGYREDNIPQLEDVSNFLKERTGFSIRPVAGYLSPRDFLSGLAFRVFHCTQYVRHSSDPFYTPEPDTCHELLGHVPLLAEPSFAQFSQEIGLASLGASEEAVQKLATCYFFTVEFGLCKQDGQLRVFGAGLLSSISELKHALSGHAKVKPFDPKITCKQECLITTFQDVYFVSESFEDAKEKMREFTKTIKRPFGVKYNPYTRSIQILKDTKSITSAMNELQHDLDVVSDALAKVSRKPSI
# measurement.description: TPH1 in vitro inhibition assay (kinetic fluorescence)
# Format: biochemical
# run.parameters: read-out: TPH1 Range (TPH1 inhibition IC50)
pIC50: −log10 of the molar value.

Here is how some compounds turned out for pIC50.
Cc1ccn(-c2cc(-c3ccc(OCc4ccccc4)c(F)c3)ccc2[C@@H](Oc2cc(N3CCC4(CC3)CN[C@H](C(=O)O)C4)nc(N)n2)C(F)(F)F)n1 [Example 1bx]    > 7.30
CN1C(=O)CCc2cc(-c3ccc([C@@H](Oc4cc(N5CCC6(CC5)CN[C@H](C(=O)O)C6)nc(N)n4)C(F)(F)F)cc3)ccc21 [Example 55aj]    6.52 to 7.30
Cc1ccn(-c2ccc(-c3cccc(CCC(=O)O)c3)cc2[C@@H](Oc2cc(N3CCC4(CC3)CN[C@H](C(=O)O)C4)nc(N)n2)C(F)(F)F)n1 [Example 19j]    > 7.30

Which pIC50 is reported for this compound? COc1cccc(-c2ccc(C(Oc3cc(N4CCC5(CC4)CN[C@H](C(=O)O)C5)nc(N)n3)C(F)(F)F)cc2)c1 (stereo partly shown) [Example 55al]
6.52 to 7.30
